tested-system: BaF3-CD74-NTRK1 (Homo sapiens)
Construct: fused on or other part: P04233 (HLA class II histocompatibility antigen gamma chain)
Sequence (P04629 510-796 limits assumed): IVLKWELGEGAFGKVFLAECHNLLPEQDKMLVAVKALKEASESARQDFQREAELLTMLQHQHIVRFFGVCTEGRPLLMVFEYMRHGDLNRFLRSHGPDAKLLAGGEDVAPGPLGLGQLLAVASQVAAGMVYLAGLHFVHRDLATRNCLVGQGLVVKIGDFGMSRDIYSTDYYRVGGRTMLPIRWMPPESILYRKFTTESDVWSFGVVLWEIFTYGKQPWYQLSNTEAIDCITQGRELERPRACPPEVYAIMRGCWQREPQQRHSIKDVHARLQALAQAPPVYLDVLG
measurement-description: Cell proliferation inhibition (CCK-8), BaF3-CD74-NTRK1 stable strain
measurement-context: BaF3-CD74-NTRK1, 72 hours
pIC50: −log10 of the molar value.
Returns Y if the recorded pIC50 is greater than or equal to 7, and N otherwise.

compound | class-assignment
Clc1cccc(Cc2ccc3[nH]nc(/C=C/c4ccccn4)c3c2)c1 [DYX-134X] | N
CC(C)n1cc(/C=C/c2n[nH]c3ccc(NS(=O)(=O)c4cc(F)cc(F)c4)cc23)cn1 | Y
Fc1cc(F)cc(-c2ccc3[nH]nc(C#Cc4ccccn4)c3c2)c1 | N
Fc1cccc(Cc2ccc3[nH]nc(C#Cc4ccccn4)c3c2)c1F | N
Cc1cccc(Cc2ccc3[nH]nc(C#Cc4ccccn4)c3c2)c1 [DYX-137Q] | N
Fc1cc(F)cc(Oc2ccc3[nH]nc(/C=C/c4ccccn4)c3c2)c1 | N
Fc1cc(F)cc(CNc2ccc3[nH]nc(/C=C/c4ccccn4)c3c2)c1 | Y
CC(C)OCCn1cc(/C=C/c2n[nH]c3ccc(NS(=O)(=O)c4cc(F)cc(F)c4)cc23)cn1 | Y
Cc1cc(C)cc(Cc2ccc3[nH]nc(/C=C/c4ccccn4)c3c2)c1 | N
Fc1cc(Cl)cc(Cc2ccc3[nH]nc(/C=C/c4ccccn4)c3c2)c1 | N
C[C@@H](Nc1ccc2[nH]nc(/C=C/c3cnn(CCO)c3)c2c1)c1cccc(F)c1 | Y
Fc1ccc(Cc2ccc3[nH]nc(C#Cc4ccccn4)c3c2)cc1F | N
CN(Cc1cc(F)cc(F)c1)c1ccc2[nH]nc(/C=C/c3ccccn3)c2c1 | N
Clc1cc(Cl)cc(Cc2ccc3[nH]nc(/C=C/c4ccccn4)c3c2)c1 | N
Fc1cc(F)cc(Oc2ccc3[nH]nc(C#Cc4ccccn4)c3c2)c1 | N
Cc1ccccc1/C=C/c1n[nH]c2ccc(S(=O)(=O)c3cc(F)cc(F)c3)cc12 | Y
Fc1ccc(Cl)c(CNc2ccc3[nH]nc(/C=C/c4ccccn4)c3c2)c1 | Y
Fc1cccc(Cc2ccc3[nH]nc(/C=C/c4ccccn4)c3c2)c1 | N
Fc1cc(Cc2ccc3[nH]nc(C#Cc4ccccn4)c3c2)cc(F)c1F | N
NC(=O)/C=C/c1n[nH]c2ccc(NCc3cc(F)cc(F)c3)cc12 | Y
Cc1cccc(Cc2ccc3[nH]nc(/C=C/c4ccccn4)c3c2)c1 [DYX-137X] | N
N#Cc1cccc(Cc2ccc3[nH]nc(/C=C/c4ccccn4)c3c2)c1 [DYX-136X] | N
Fc1cc(CNc2ccc3[nH]nc(/C=C/c4ccccn4)c3c2)cc(C(F)(F)F)c1 | N
CN(C)C(=O)Cn1cc(/C=C/c2n[nH]c3ccc(NS(=O)(=O)c4cc(F)cc(F)c4)cc23)cn1 | N
Fc1ccc(F)c(Cc2ccc3[nH]nc(C#Cc4ccccn4)c3c2)c1 | N
O=C(Nc1cc(F)cc(F)c1)Nc1ccc2[nH]nc(/C=C/c3ccccn3)c2c1 | N
Fc1cc(Br)cc(CNc2ccc3[nH]nc(/C=C/c4ccccn4)c3c2)c1 | Y
C[C@@H](Nc1ccc2[nH]nc(/C=C/c3cnn(CCO)c3)c2c1)c1cc(F)cc(F)c1 | Y
Fc1ccc(Cc2ccc3[nH]nc(C#Cc4ccccn4)c3c2)c(F)c1 | N

====

Catalogue of log10(IC50) readings, one per entry.
tested-system: BaF3-CD74-NTRK1 (Homo sapiens)
Construct: fused on or other part: P04233 (HLA class II histocompatibility antigen gamma chain)
measurement-description: Cell proliferation inhibition (CCK-8), BaF3-CD74-NTRK1 stable strain
measurement-context: BaF3-CD74-NTRK1, 72 hours
reported-metric: log10(IC50) (log10 of the value in nM)

compound | assay-value
Fc1cc(F)cc(Sc2ccc3[nH]nc(C#Cc4ccccn4)c3c2)c1 [DYX-086] | 3.56
Fc1ccccc1Cc1ccc2[nH]nc(/C=C/c3ccccn3)c2c1 [DYX-032] | 3.28
Fc1cc(F)cc(Nc2ccc3[nH]nc(C#Cc4ccccn4)c3c2)c1 [DYX-129] | 4.00
Cc1cc(F)cc(CNc2ccc3[nH]nc(/C=C/c4ccccn4)c3c2)c1 [DYX-401] | 2.05
CN(c1cc(F)cc(F)c1)c1ccc2[nH]nc(/C=C/c3ccccn3)c2c1 [DYX-139] | 3.37
O=S(=O)(Nc1ccc2[nH]nc(/C=C/c3cn[nH]c3)c2c1)c1cc(F)cc(F)c1 [Example D5220] | 2.08
Cc1ccccc1/C=C/c1n[nH]c2ccc(Cc3cc(F)cc(F)c3)cc12 [Example D01F08] | 2.05
Fc1cccc(F)c1Cc1ccc2[nH]nc(/C=C/c3ccccn3)c2c1 [DYX-081] | 3.16
C[C@@H](Nc1ccc2[nH]nc(/C=C/c3ccccn3)c2c1)c1cccc(F)c1 [DYX-320] | 1.58

====

measurement-description: Rat hepatocyte stability experiment
Format: in vitro ADME
measurement-context: rat hepatocytes, 60 min, average value

molecule | Residual percentage (%) 60 min
C[C@@H](Nc1ccc2[nH]nc(/C=C/c3ccccn3)c2c1)c1cc(F)cc(F)c1 [DYX-244-1] | 8.20%
C[C@@H](Nc1cnc2[nH]nc(/C=C/c3ccccn3)c2c1)c1cc(F)cc(F)c1 [DYX-318] | 0.27%
C[C@]12CC[C@H]3[C@@H](CCC4=CC(=O)CC[C@@]43C)[C@@H]1CC[C@@H]2O [Testosterone, reference compound] | BQL
O=S(=O)(Nc1ccc2[nH]nc(/C=C/c3ccccn3)c2c1)c1cc(F)cc(F)c1 [DYX-165] | 59.81%

====

Lab note: log10 of IC50 readings collected with TRKB (Homo sapiens, UniProt Q16620) for the following compounds.
Sequence (Q16620 32-822): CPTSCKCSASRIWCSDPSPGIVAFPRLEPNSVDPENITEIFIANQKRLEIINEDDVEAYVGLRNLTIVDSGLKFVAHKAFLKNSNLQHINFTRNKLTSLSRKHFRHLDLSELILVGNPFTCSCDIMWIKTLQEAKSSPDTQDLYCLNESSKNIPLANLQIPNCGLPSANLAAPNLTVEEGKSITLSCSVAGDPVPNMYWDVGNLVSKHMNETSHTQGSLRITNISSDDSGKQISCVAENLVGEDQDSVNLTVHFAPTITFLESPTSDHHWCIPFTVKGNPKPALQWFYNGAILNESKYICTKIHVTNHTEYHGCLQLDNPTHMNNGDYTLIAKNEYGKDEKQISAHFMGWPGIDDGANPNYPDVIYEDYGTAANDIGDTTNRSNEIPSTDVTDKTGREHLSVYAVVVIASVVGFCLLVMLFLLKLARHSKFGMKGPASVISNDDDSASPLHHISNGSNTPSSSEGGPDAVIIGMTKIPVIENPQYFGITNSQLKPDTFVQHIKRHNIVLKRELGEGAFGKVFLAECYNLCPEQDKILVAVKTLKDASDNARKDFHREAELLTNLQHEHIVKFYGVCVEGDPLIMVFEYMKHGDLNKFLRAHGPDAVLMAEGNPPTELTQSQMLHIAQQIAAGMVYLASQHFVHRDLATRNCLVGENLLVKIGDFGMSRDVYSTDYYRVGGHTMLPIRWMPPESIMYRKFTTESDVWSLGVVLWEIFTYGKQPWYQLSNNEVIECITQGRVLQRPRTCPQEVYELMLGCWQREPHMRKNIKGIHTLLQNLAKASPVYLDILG
reported-metric: log10 of IC50 (log10 of the value in nM)

compound | log10 of IC50
Fc1cc(F)cc(COc2ccc3[nH]nc(/C=C/c4ccccn4)c3c2)c1 [DYX-132] | 0.99
COc1cccc(Cc2ccc3[nH]nc(C#Cc4ccccn4)c3c2)c1 [DYX-135Q] | 2.91
N#Cc1cccc(Cc2ccc3[nH]nc(/C=C/c4ccccn4)c3c2)c1 [DYX-136X] | 1.96
Fc1cccc(CNc2ccc3[nH]nc(/C=C/c4ccccn4)c3c2)c1 [DYX-305] | 0.98
Fc1ccc(Cc2ccc3[nH]nc(/C=C/c4ccccn4)c3c2)cc1 [DYX-042] | 2.45
CN(c1cc(F)cc(F)c1)c1ccc2[nH]nc(C#Cc3ccccn3)c2c1 [DYX-130] | 3.00
Fc1cc(F)cc(Cc2ccc3[nH]nc(C#Cc4ccccn4)c3c2)c1 [CCB-484] | 1.92
Fc1ccc(F)c([C@H]2CCCN2c2ccc3[nH]nc(/C=C/c4ccccn4)c3c2)c1 [DYX-170] | 1.26

====

tested-system: BaF3-CD74-NTRK1 (Homo sapiens)
Construct: fused on or other part: P04233 (HLA class II histocompatibility antigen gamma chain)
measurement-description: Cell proliferation inhibition (CCK-8), BaF3-CD74-NTRK1 stable strain
measurement-context: BaF3-CD74-NTRK1, 72 hours

compound | IC50
O=C(/C=C/c1n[nH]c2ccc(NCc3cc(F)cc(F)c3)cc12)N1CCOCC1 | 0.0373 µM
O=S(=O)(Nc1ccc2[nH]nc(/C=C/c3cnn(CC(F)(F)F)c3)c2c1)c1cc(F)cc(F)c1 | 0.092 µM
COc1cccc(Cc2ccc3[nH]nc(C#Cc4ccccn4)c3c2)c1 [DYX-135Q] | > 10 µM
Fc1ccc(F)c(CNc2ccc3[nH]nc(/C=C/c4ccccn4)c3c2)c1 [DYX-216A] | 0.0126 µM
Fc1cc(Cl)cc(CNc2ccc3[nH]nc(/C=C/c4ccccn4)c3c2)c1 | 0.059 µM

====

tested-system: BaF3-ETV6-NTRK3 (Homo sapiens, UniProt Q16288)
Construct: fused on or other part: P41212 (Transcription factor ETV6)
Sequence (Q16288 whole entry, the tested form may be a part): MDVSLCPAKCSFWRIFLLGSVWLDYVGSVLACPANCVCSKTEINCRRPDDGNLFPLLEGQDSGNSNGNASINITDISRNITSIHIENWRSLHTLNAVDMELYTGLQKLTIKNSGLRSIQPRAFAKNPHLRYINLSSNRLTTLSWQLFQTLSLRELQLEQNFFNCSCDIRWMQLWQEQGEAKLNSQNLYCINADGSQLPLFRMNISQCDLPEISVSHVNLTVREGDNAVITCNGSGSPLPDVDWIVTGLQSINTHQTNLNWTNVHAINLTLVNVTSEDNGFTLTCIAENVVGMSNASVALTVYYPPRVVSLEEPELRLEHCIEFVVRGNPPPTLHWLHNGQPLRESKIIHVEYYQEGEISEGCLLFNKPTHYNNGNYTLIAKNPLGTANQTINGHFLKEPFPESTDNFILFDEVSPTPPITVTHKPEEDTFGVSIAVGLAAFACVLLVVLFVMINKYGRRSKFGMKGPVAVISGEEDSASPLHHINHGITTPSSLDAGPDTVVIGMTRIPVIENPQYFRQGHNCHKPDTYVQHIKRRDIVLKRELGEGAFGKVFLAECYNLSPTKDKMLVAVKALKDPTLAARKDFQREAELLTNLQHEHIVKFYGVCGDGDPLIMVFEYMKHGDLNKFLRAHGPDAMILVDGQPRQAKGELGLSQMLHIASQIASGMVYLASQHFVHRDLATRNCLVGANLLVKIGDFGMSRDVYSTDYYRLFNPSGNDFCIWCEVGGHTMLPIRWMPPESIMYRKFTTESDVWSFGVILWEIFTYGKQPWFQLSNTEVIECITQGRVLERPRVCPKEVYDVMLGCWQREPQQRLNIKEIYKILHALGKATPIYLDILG
measurement-description: Cell proliferation inhibition (CCK-8), BaF3-ETV6-NTRK3 stable strain
measurement-context: BaF3-ETV6-NTRK3, 72 hours
pIC50: −log10 of the molar value.
Below is a list of entries, each paired with its recorded pIC50 value.

molecule | bound-sign | pIC50
N#Cc1cccc(Cc2ccc3[nH]nc(/C=C/c4ccccn4)c3c2)c1 [DYX-136X] | = | 6.13
Fc1ccc(F)c(Cc2ccc3[nH]nc(/C=C/c4ccccn4)c3c2)c1 | = | 6.84
Fc1ccc(Cc2ccc3[nH]nc(C#Cc4ccccn4)c3c2)cc1F | < | 5.00
Fc1cc(F)cc(Oc2ccc3[nH]nc(/C=C/c4ccccn4)c3c2)c1 | = | 6.30
CN(Cc1ccc2[nH]nc(/C=C/c3ccccn3)c2c1)c1cc(F)cc(F)c1 | = | 7.08

====

tested-system: BaF3-ETV6-NTRK3 (Homo sapiens, UniProt Q16288)
Construct: fused on or other part: P41212 (Transcription factor ETV6)
measurement-description: Cell proliferation inhibition (CCK-8), BaF3-ETV6-NTRK3 stable strain
measurement-context: BaF3-ETV6-NTRK3, 72 hours

compound | IC50
Fc1cc(F)cc(-c2ccc3[nH]nc(/C=C/c4ccccn4)c3c2)c1 [DYX-119] | > 10000 nM
C[C@@H](Nc1ccc2[nH]nc(/C=C/C(=O)N3CC[C@H](O)C3)c2c1)c1cc(F)cc(F)c1 [DYX-303] | 7.1 nM
C[C@@H](Nc1ccc2[nH]nc(/C=C/c3ccccn3)c2n1)c1cc(F)cc(F)c1 [DYX-332] | 46.5 nM
Fc1cc(F)cc(C#Cc2ccc3[nH]nc(/C=C/c4ccccn4)c3c2)c1 [DYX-183] | > 10000 nM

Hey, just so you know, these numbers are from patent US20220281821A1.
